Would you kindly list OD450 for each of these binders?
target: T1, recombinant human CD40-Fc (human, UniProt P25942 21-193); test: ELISA, CD40-Fc coated, VHH at 1000 nM
T1 construct: also called rh-CD40-Fc; CD40-hFc
T1 sequence (P25942 21-193): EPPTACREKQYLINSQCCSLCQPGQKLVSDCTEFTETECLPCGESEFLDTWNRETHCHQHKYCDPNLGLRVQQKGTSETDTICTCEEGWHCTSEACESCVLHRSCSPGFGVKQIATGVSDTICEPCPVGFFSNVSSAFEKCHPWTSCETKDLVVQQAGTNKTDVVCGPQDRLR
I only need the number, thanks.

Query: # OD450 lookup, item pgDD40-SZ-5 (VHH, not shown: small tags and cut ends) VHH: QVQLVESGGALAQPGGSLRLSCEASENVRSVNAMAWYRQGPGKPRELVANITSGDATYYADSVKGRFTLSREGARNTVYLQMNSLKPEDTAVYQCNVHYTSWGGIRRDYWGRGTQVTVSS
Reply: 1.67

Query: # OD450 lookup, item pgDD40-SZ-3 (VHH, not shown: small tags and cut ends) VHH: QVQLVESGGGLVQAGDSLRLSCTASGRAFNTYTMAWFRQAPGKERDFVAAISRDGTITHYADSVKGRFTTTRDNAKNTMYLQMSSLKYDDTAVYYCAARRVGAVPERESAYEHWGQGTQVTVSS
Reply: 1.57
